Where these numbers come from: patent US10501460B2

Test system: MV-4-11
Experiment: Oncology cell growth assay MV-4-11 (CellTiter Glo, 72 hours)
Assay type: cell-based
Conditions: Homo sapiens, MV4-11, 72 h; MV-4-11 cell growth inhibitory activity, 3d
REPORTED METRIC: IC50

Example molecules with recorded IC50:
1) Cc1noc(C)c1-c1cnc2c(c1)c(CC1CCN(S(=O)(=O)c3ccccc3)CC1)cn2C | 1 to 10 µM
2) Cc1noc(C)c1-c1cnc2c(-c3cccnc3)cn(S(=O)(=O)c3ccccc3)c2c1 | ≤ 1 µM
3) Cc1noc(C)c1-c1cnc2c(-c3cnn(C)c3)cn(Cc3ccccc3F)c2c1 | ≤ 1 µM
4) Cc1noc(C)c1-c1cnc2c(-c3cnn(C)c3)cn(CC3CCC(F)(F)CC3)c2c1 | ≤ 1 µM

Req: Given Cc1noc(C)c1-c1cnc2c(-c3cnn(C)c3)cn([C@@H](C)c3ccccc3)c2c1 , state its recorded IC50.
Resp: ≤ 1 µM

----------
Overview of recorded IC50 for various compounds
System: MV-4-11
Assay: Oncology cell growth assay MV-4-11 (CellTiter Glo, 72 hours)
Format: cell-based
Details: Homo sapiens, MV4-11, 72 h; MV-4-11 cell growth inhibitory activity, 3d

1) Cc1noc(C)c1-c1cnc2ccn(S(=O)(=O)c3ccc(OC(C)C)cc3)c2c1 [P-0033] | 1 to 10 µM
2) [2H]C([2H])(C1CCC(F)(F)CC1)n1cc(-c2cnn(C3CC3)c2)c2ncc(-c3c(C)noc3C)cc21 [P-0220] | ≤ 1 µM
3) Cc1noc(C)c1-c1cnc2[nH]cc(CC3CCS(=O)(=O)CC3)c2c1 [P-0098] | 1 to 10 µM
4) Cc1noc(C)c1-c1cnc2c(-c3cnn(C)c3)cn([C@H](C)c3ccccc3)c2c1 [P-0223] | ≤ 1 µM

// switching to the query compound
Req: // map Cc1noc(C)c1-c1cnc2[nH]cc(Cc3cccnc3)c2c1 [P-0003] to recorded IC50 (system: MV-4-11)
Resp: ≤ 1 µM

----------
Target: BRD4-BD1 (44-164) (Homo sapiens)
Construct: BRD4-BD1 (44-164); made in house; host or cells: E. coli BL21-CodonPlus (DE3)
Assay: Alphascreen binding assay BRD4-BD1 (BRD4 biochemical inhibitory activity)
Settings: read-out: Biochemical activity (IC50 μM) BRD4(1) H4
REPORTED METRIC: IC50

1) Cc1noc(C)c1-c1cnc2[nH]cc(C(=O)c3ccc(C(F)(F)F)cc3)c2c1 [P-0016] | 1 to 10 µM
2) Cc1noc(C)c1-c1cnc2[nH]cc(C=C3CCS(=O)(=O)CC3)c2c1 [P-0099] | 1 to 10 µM
3) Cc1noc(C)c1-c1cnc2ccn(S(=O)(=O)c3ccc(F)cc3)c2c1 [P-0052] | 1 to 10 µM
4) Cc1nn(C(F)F)cc1S(=O)(=O)n1ccc2ncc(-c3c(C)noc3C)cc21 [P-0058] | 1 to 10 µM
5) Cc1noc(C)c1-c1cnc2c(-c3cnn(C)c3)cn(C(=O)C3CCC(F)(F)CC3)c2c1 [P-0208] | ≤ 1 µM

Req: Given [2H]C([2H])([2H])n1cc(CC2CCC(F)(F)CC2)c2cc(-c3c(C)noc3C)cnc21 [P-0079] , state its recorded IC50.
Resp: ≤ 1 µM

Req: Given Cc1noc(C)c1-c1cnc2ccn(S(=O)(=O)c3cccc(OC(F)F)c3)c2c1 [P-0061] , state its recorded IC50.
Resp: 1 to 10 µM

Req: Given Cc1noc(C)c1-c1cnc2[nH]cc(Cc3cccc(OC(F)(F)F)c3)c2c1 [P-0046] , state its recorded IC50.
Resp: 1 to 10 µM

Req: Given Cc1noc(C)c1-c1cnc2[nH]cc(C=C3CC[S+]([O-])CC3)c2c1 (stereo not drawn) [P-0093] , state its recorded IC50.
Resp: 1 to 10 µM

Req: Given Cc1noc(C)c1-c1cnc2ccn(S(=O)(=O)c3cccc(F)c3)c2c1 [P-0056] , state its recorded IC50.
Resp: 1 to 10 µM
